system: Plasmodium falciparum Sir2 (PF13_0152, Sir2A); test: Plasmodium falciparum Sir2A binding compounds – biochemical, small-molecule microarray, 635 nm fluorescence, primary screen (AID 1098); details: fluorescence 635 nm, higher = more signal;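 further: score merges spot fluorescence intensity with its signal-to-noise ratio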
assayEndpoint: composite z-score
Respond numerically, and do not add a unit to the figure.

The recorded composite z-score for NC(=O)NCC#Cc1ccc2c(c1)[C@]1(C(=O)N2)[C@H](c2ccc(OCCO)cc2)N2[C@H](c3ccccc3)[C@H](c3ccccc3)OC(=O)[C@H]2[C@@H]1C(=O)NC[C@H](O)c1ccccc1 is 1.24

The measured composite z-score associated with COCCOC(=O)N1C(=O)[C@@]2(c3cc(C#CCC(C(=O)OC)C(=O)OC)ccc31)[C@H](c1ccc(O)cc1)N1[C@H](c3ccccc3)[C@H](c3ccccc3)OC(=O)[C@H]1[C@@H]2C(=O)Nc1nc2ccccc2s1 reads 1.54

Form: molecule = C=CC[C@@]1(C(=O)N(C)C)N=C(c2ccc(OCCCO)cc2)O[C@@H]1c1ccccc1CN=[N+]=[N-] ; composite z-score = 0.964

The recorded composite z-score for entry [N-]=[N+]=Nc1ccccc1C[C@]1(C(=O)N2CCOCC2)N=C(c2ccc(OCCCO)cc2)O[C@H]1c1ccccc1N=[N+]=[N-] equals 1.53

Please fill in: composite z-score reported for O=C1C2C=CC(C(O)c3cccs3)N(Nc3ccc([N+](=O)[O-])cc3)C2C(=O)N1c1ccccc1 (stereo unspecified) = 0.672

The recorded composite z-score for entry COCCOC(=O)N1C(=O)[C@@]2(c3cc(C#CCC(C(=O)OC)C(=O)OC)ccc31)[C@H](C(=O)Nc1nc3ccccc3s1)[C@H]1C(=O)O[C@H](c3ccccc3)[C@H](c3ccccc3)N1[C@@H]2c1ccc(OCCO)cc1 equals 0.659

Entry CN1C(=O)C2C(C1=O)C1C=C(c3ccc(CO)cc3)C2C(C2CC2)N1C (stereo unspecified) ; composite z-score = 0.028

The value of composite z-score measured for the molecule O=C1[C@H]2C=C(I)[C@H](C[C@@H]2c2ccccc2)[C@@]12CO2 turned out to be -0.506

Per the records, this molecule ( CCC(CC)C(O)C1C=CC2C(=O)N(c3ccccc3)C(=O)C2N1Nc1ccccc1F (stereo unspecified) ) has composite z-score equal to 1.17

molecule C=C(C)[C@@H]1CC=C(C(O)C2C=CC3C(=O)N(C)C(=O)C3N2Nc2ccc([N+](=O)[O-])cc2[N+](=O)[O-])CC1 (stereo partly specified) , composite z-score observed: 0.626

Query NC(=O)NCC#Cc1ccc2c(c1)[C@]1(C(=O)N2)[C@H](c2ccc(OCCO)cc2)N2[C@H](c3ccccc3)[C@H](c3ccccc3)OC(=O)[C@H]2[C@@H]1C(=O)O yields composite z-score of 1.05

composite z-score measured on C=CCC(OC(C)=O)[C@@H]1[C@@H](N(Cc2cccc3ccccc23)C(=O)Cc2ccc(OC)cc2)c2cc(OCCCO)ccc2N1C(=O)c1ccc2ccccc2c1 (stereo partly specified) = 0.0596

What the record says about Cc1ccc(F)cc1S(=O)(=O)N[C@H]1CCN(Cc2ccc(OC(C)C)cc2)C1 : composite z-score is 1.23

The molecule CCCCCCc1nc(Cc2cc(OC)c(OC)c(OC)c2)cc2c1[Si](C(C)C)(C(C)C)O[C@H]2c1ccccc1 showed composite z-score equal to 0.268

Given item COc1ccc(C(=O)Nc2ccc(CN3C(=O)[C@@]4(O[C@@H](CCn5cc(CCO)nn5)[C@H]([Si](C)(C)c5ccc(OC)cc5)[C@H]4C)c4ccccc43)cc2)cc1 , the value recorded as its composite z-score is 1.36

Record O=C1NC(=O)C2C1C=CC(C(O)c1ccc(B(O)O)cc1)N2Nc1ccc(Cl)cc1Cl (stereo unspecified) . Reported composite z-score: 0.46

composite z-score measured on C=C(/C(=C/C[C@@H](OC(C)=O)c1cccc(OCCO)c1)c1cnc2ccccc2c1)C(C)C = 0.85

Lookup result for COc1ccc([Si](C)(C)[C@H]2[C@H](CCO)O[C@@]3(C(=O)N(Cc4ccc(NC(=O)[C@H](C)O)cc4)c4ccccc43)[C@@H]2C)cc1 ; measured composite z-score: 0.931

The molecule identified as CCCCC(=C=CC[C@H](O)c1ccc(CO)o1)CCO registered its composite z-score at 1.17

The molecule identified as CCOc1cc(C(O)C2C=CC3C(=O)N(c4ccccc4)C(=O)C3N2Nc2ccccc2F)ccc1O (stereo unspecified) registered its composite z-score at 1.53

// field: composite z-score; key: COc1cc(CO)cc(I)c1O[C@H]1C=C(C(=O)NCCO)C[C@@H]2O[C@H]12 ; value = 0.6

Lab book: composite z-score of C=CCNC(=O)[C@H]1[C@@H]2C(=O)O[C@@H](c3ccccc3)[C@@H](c3ccccc3)N2[C@@H](c2ccc(OCCO)cc2)[C@]12C(=O)Nc1ccccc12 noted as 1.39

Cc1ccc(S[C@]2(C(=O)NCCCN(C)C)CC(=O)N(Cc3ccccc3C(F)(F)F)[C@@H]2c2ccc(CO)cc2I)cc1 has a reported composite z-score of 1.18

So for COC(=O)[C@@]1(Cc2ccc(OC)cc2)[C@H]2c3cc(C(=O)N(C)C)[nH]c3C[C@H]2CN1C(=O)c1ccccc1 , the logged composite z-score turned out to be 1.03

Entry CCOC(=O)C[C@H]1[C@H](OC(=O)Cc2ccc3c(c2)OCO3)[C@@H](NC(=O)c2ccc3ccccc3n2)c2cc(OCCCO)ccc2N1C(=O)Cc1ccc(OC)cc1 — recorded composite z-score = 0.435

Data point: COCCOC(=O)N1C(=O)[C@@]2(c3ccccc31)[C@H](c1ccc(O)cc1)N1[C@H](c3ccccc3)[C@H](c3ccccc3)OC(=O)[C@H]1[C@@H]2C(=O)N1CCCCCCC1 ; composite z-score = 1.81
